The reported numbers originate from patent US20260242405A1.

molecular target: PmST1 WT (sialidase activity of α2-3-sialyltransferase 1 in the presence of CMP) (Pasteurella multocida); construct: made in house; assay: biochemical; conditions: inhibitor 8.0 μM; in the presence of CMP; Table 5
# maps each entry to its percent inhibition against PmST1 WT
Quick note: give the figure in %, leave out the unit.

Worked examples, 3 compounds total:
Compound	Unit Name	percent inhibition against PmST1 WT
CC(=O)N[C@H]1[C@H]([C@H](O)[C@H](O)CO)OC(C(=O)O)=C[C@@H]1NC(C)=O	%	7.1
CC(=O)N[C@H]1[C@H]([C@H](O)[C@H](O)CO)OC(C(=O)O)=C[C@@H]1N=[N+]=[N-]	%	15.4
CC(=O)N[C@H]1[C@H]([C@H](O)[C@H](O)CO)OC(C(=O)O)=C[C@@H]1N [4NH2Neu5Ac2en, reference compound]	%	9.8

From here, focus on the item given below.
Sample CC(=O)N[C@H]1[C@H]([C@H](O)[C@H](O)CO)OC(C(=O)O)=C[C@@H]1O [Neu5Ac2en, 2,3-dehydro-N-acetylneuraminic acid, reference compound] — what was its percent inhibition against PmST1 WT?
0.9

====

# maps each entry to its inhibition at 8 µM
target: PmST1 WT (sialidase activity of α2-3-sialyltransferase 1 in the presence of CMP) (Pasteurella multocida); construct: made in house; experiment: biochemical; details: read-out: percent inhibition against PmST1 WT
Quick note: give the figure in %, leave out the unit.

Molecule	inhibition at 8 µM / %
CC(=O)NC1C[C@](OC2C(O)[C@H](Oc3ccc([N+](=O)[O-])cc3)OC(CO)[C@@H]2O)(C(=O)O)OC([C@H](O)[C@H](O)CO)[C@@H]1NC(C)=O (stereo partly shown) [4NAcNeu5Acα2-3GalβpNP]	27.9
CC(=O)N[C@@H]1C(N)C[C@](OC2C(O)[C@H](Oc3ccc([N+](=O)[O-])cc3)OC(CO)[C@@H]2O)(C(=O)O)OC1[C@H](O)[C@H](O)CO (stereo partly shown) [4NH2Neu5Acα2-3GalβpNP]	23.4
CC(=O)N[C@@H]1C(N=[N+]=[N-])C[C@](OC2C(O)[C@H](Oc3ccc([N+](=O)[O-])cc3)OC(CO)[C@@H]2O)(C(=O)O)OC1[C@H](O)[C@H](O)CO (stereo partly shown) [4N3Neu5Acα2-3GalβpNP]	24

Sample CC(=O)N[C@@H]1C(O)C[C@](OC2C(O)[C@H](Oc3ccc([N+](=O)[O-])cc3)OC(CO)[C@@H]2O)(C(=O)O)OC1[C@H](O)[C@H](O)CO (stereo partly shown) [Neu5Acα2-3GalβpNP, reference compound] — what was its inhibition at 8 µM?
12.4

====

target: N2-Dar21 (IAV neuraminidase) (Influenza A virus, UniProt A0A193ACB1)
Observable: pIC50
Lab note: report pIC50 as minus log10 of the concentration in molar units, number only.

Sample CC(=O)N[C@H]1[C@H]([C@H](O)[C@H](O)CO)OC(C(=O)O)=C[C@@H]1O [Neu5Ac2en, 2,3-dehydro-N-acetylneuraminic acid, reference compound] — what was its pIC50?
5.17

====

# maps each entry to its percentage inhibition against N1-Vic19
system: N1-Vic19 (IAV neuraminidase); assay: Fluorescence-based inhibition assay (substrate Neu5Acα2-3GalβMU, β-galactosidase coupled); assay type: biochemical, influenza A virus A/Victoria/2570/2019 (H1N1); settings: inhibitor 8.0 μM; Example 3, Table 4
Quick note: give the figure in %, leave out the unit.

Worked examples, 4 molecules total:
Molecule	Data Value
CC(=O)N[C@@H]1C(NC(=N)N)C[C@](OC2C(O)[C@H](Oc3ccc([N+](=O)[O-])cc3)OC(CO)[C@@H]2O)(C(=O)O)OC1[C@H](O)[C@H](O)CO (some centres unmarked) [4-Guanidino-Neu5Acα2-3GalβpNP]	98.2
CC(=O)N[C@@H]1C(N=[N+]=[N-])C[C@](OC2C(O)[C@H](Oc3ccc([N+](=O)[O-])cc3)OC(CO)[C@@H]2O)(C(=O)O)OC1[C@H](O)[C@H](O)CO (some centres unmarked) [4N3Neu5Acα2-3GalβpNP]	1.2
CC(=O)N[C@H]1[C@H]([C@H](O)[C@H](O)CO)OC(C(=O)O)=C[C@@H]1N=[N+]=[N-] [Compound 4N3Neu5Ac2en, 4N3Neu5Ac2en]	39.6
CC(=O)N[C@@H]1C(N=[N+]=[N-])C[C@](OCC2O[C@@H](Oc3ccc([N+](=O)[O-])cc3)C(O)C(O)[C@H]2O)(C(=O)O)OC1[C@H](O)[C@H](O)CO (some centres unmarked) [4N3Neu5Acα2-6GalβpNP]	3.9

Tell me reported percentage inhibition against N1-Vic19 for CC(=O)N[C@@H]1C(N)C[C@](OC2C(O)[C@H](Oc3ccc([N+](=O)[O-])cc3)OC(CO)[C@@H]2O)(C(=O)O)OC1[C@H](O)[C@H](O)CO (some centres unmarked) [4NH2Neu5Acα2-3GalβpNP] , tested with N1-Vic19 (IAV neuraminidase).
48.3
